Data origin: patent US5840893A

# Tested on: Plasmodium falciparum clone Dd2
# assay_protocol: Antimalarial activity in vitro, hypoxanthine incorporation, clone Dd2
# Assay type: cell-based
# assay_setup: Plasmodium falciparum, DD2, read-out: CNI-0294 IC50
observable: IC50

CC(=O)c1cc(Nc2cc(C)[n+](C)c(N)n2)cc(C(C)=O)c1.[Cl-] [CNI-0294]    3.52 µM

###

Listed compounds paired with reported IC50
# Tested on: HIV-1
# assay_protocol: Inhibition of HIV-1 replication in cultured macrophages (Table I)
# Type: cell-based
# assay_setup: Human immunodeficiency virus 1, Macrophage; 50% inhibition of viral growth, RT or p24, macrophages
observable: IC50

CC(=O)c1cc(Nc2cc(C)[n+](C)c(N)n2)cc(C(C)=O)c1.[I-]    1 nM
CC(=O)c1cc(Nc2cc(C)nc(N)n2)cc(C(C)=O)c1    50 nM
CC(=O)c1cccc(Nc2cc(C)[n+](C)c(N)n2)c1    10 nM
CC(=O)c1cccc(Nc2cc(C)nc(N)n2)c1    15 nM

###

# assay_protocol: in vivo
# assay_setup: mouse, plasma, ip, 50 mg/kg
observable: Cmax (ng/mL)

CC(=O)c1cc(Nc2cc(C)[n+](C)c(N)n2)cc(C(C)=O)c1.[Cl-]    18800

###

# assay_protocol: in vivo
# assay_setup: mouse, plasma, po, 50 mg/kg
observable: Cmax (ng/mL)

CC(=O)c1cc(Nc2cc(C)[n+](C)c(N)n2)cc(C(C)=O)c1.[Cl-]    400

###

# assay_protocol: in vivo
# assay_setup: mouse, plasma, ip, 50 mg/kg
observable: k el

CC(=O)c1cc(Nc2cc(C)nc(N)n2)cc(C(C)=O)c1 [Compound No. 11]    5.28e-05 s⁻¹
CC(=O)c1cc(Nc2cc(C)[n+](C)c(N)n2)cc(C(C)=O)c1.[Cl-] [CNI-0294]    4.17e-05 s⁻¹
CC(=O)c1cc(N)cc(C(C)=O)c1 [CNI-1894, 3,5-diacetylaniline]    8.33e-06 s⁻¹

###

# Tested on: Plasmodium falciparum clone FCR-3
# assay_protocol: Antimalarial activity in vitro, hypoxanthine incorporation, clone FCR-3
# Format: cell-based
# assay_setup: FCR3, read-out: CNI-0294 IC50
observable: IC50 (µM)

CC(=O)c1cc(Nc2cc(C)[n+](C)c(N)n2)cc(C(C)=O)c1.[Cl-]    3.09

###

# assay_protocol: in vitro
# Format: in vitro ADME, mouse (ND4 Swiss Webster)
# assay_setup: mouse, liver post-mitochondrial supernatant; 60 min incubation, by peak area; read-out: drug altered (metabolic conversion)
metabolised at 1 h values by entry
observable: metabolised at 1 h

CC(=O)c1cc(Nc2cc(C)[n+](C)c(N)n2)cc(C(C)=O)c1.[Cl-]    43.5%
CC(=O)c1cc(Nc2cc(C)nc(N)n2)cc(C(C)=O)c1    65.2%
CC(=O)c1cccc(Nc2cc(C)nc(N)n2)c1    11.7%
CC(=O)c1cc(N)cc(C(C)=O)c1    17.3%

###

# System: mice
# assay_protocol: Toxicity study: median lethal dose in mice, i.p.
# Assay type: in vivo
observable: LD50 (median lethal dose) (mg/kg)

CC(=O)c1cc(N)cc(C(C)=O)c1    258.64
CC(=O)c1cccc(Nc2cc(C)nc(N)n2)c1    49.04
CC(=O)c1ccc(Nc2cc(C)nc(N)n2)cc1    48.93
